Attribution: patent US4605658A

- Protocol summary: Test 3: cytotoxicity, HeLa cells
- Type: cell-based
- Condition details: human, Table 4, read-out: Minimum cytotoxic concentration (MCC)
Quantity kind: MCC (µg/mL)
Write the answer as a number in µg/mL, unit excluded.

Solved entries (count: 3):
[Q] Read off the recorded MCC for CCCCOC(=O)C(O)Cn1cnc2c(N)ncnc21 (racemic)
[A] 400

[Q] Indicate the recorded MCC value for this compound: CC(C)CCOC(=O)C(O)Cn1cnc2c(N)ncnc21 (racemic)
[A] 400

[Q] Fill in reported MCC for this entry: Nc1ncnc2c1ncn2CC(O)C(=O)OC1CCCCC1 (racemic)
[A] 100

# ---- query compound ----
[Q] Respond only with MCC recorded for CCCOC(=O)C(O)Cn1cnc2c(N)ncnc21 (racemic)
[A] 400
